Cited source for all entries: patent US20240336909

target: AxCT mask27 EGFR EH104 L064 version 1
Observed Property: Percent cleavage (%)
Write the number in % without appending the unit.

Some entries whose results are on file:
Protein: Matriptase (protein) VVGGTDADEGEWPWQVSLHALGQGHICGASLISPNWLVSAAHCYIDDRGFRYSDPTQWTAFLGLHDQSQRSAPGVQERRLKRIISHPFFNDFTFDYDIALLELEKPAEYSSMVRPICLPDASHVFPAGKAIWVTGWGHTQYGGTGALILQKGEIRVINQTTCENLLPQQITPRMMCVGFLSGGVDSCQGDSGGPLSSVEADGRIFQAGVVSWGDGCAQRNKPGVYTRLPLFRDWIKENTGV
Value Unit: %
Percent cleavage: 0

Protein: MMP-12 (protein) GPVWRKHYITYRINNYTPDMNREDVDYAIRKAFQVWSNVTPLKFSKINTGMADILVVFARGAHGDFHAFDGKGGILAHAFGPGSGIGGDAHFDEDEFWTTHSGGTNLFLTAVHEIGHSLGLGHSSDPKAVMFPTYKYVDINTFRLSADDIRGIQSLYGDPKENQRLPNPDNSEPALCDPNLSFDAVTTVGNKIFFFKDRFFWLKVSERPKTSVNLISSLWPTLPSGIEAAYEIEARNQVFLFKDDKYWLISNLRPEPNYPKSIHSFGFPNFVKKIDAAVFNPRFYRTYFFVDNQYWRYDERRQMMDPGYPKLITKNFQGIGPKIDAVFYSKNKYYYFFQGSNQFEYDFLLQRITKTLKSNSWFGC
Value Unit: %
Percent cleavage: 34

Protein: Neutrophil Elastase (protein) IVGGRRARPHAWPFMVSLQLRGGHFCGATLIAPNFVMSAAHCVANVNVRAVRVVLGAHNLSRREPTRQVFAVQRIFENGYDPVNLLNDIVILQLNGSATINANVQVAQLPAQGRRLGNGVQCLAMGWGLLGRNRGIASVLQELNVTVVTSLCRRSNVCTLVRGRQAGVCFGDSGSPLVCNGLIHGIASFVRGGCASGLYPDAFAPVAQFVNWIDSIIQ
Value Unit: %
Percent cleavage: 30

Q: Entry MMP-7 (protein) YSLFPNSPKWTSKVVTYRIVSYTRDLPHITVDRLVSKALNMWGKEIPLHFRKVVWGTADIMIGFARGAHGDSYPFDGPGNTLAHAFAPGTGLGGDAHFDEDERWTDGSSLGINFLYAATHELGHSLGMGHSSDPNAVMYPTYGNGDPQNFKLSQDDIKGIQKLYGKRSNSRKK has what Percent cleavage?
Result: 28

Q: What does the record list as Percent cleavage for Cathepsin G (protein) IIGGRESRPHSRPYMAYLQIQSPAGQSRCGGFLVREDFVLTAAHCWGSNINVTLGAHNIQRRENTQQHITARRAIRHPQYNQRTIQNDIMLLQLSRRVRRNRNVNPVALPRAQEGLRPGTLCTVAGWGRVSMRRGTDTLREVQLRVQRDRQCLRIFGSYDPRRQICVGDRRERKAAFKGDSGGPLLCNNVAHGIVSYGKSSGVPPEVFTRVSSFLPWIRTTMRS ?
Result: 0
